- Measurement Notes: Antagonist activity at ER in human MCF7 cells assessed as inhibition of 17beta-estradiol-induced cell proliferation
Measurement Kind: pIC50
The value called pIC50 is obtained by taking minus log10 of the concentration in mol/L.

Give its pIC50 value. Item: Oc1ccc2c(c1)C(c1ccc(OCCN3CCCCC3)cc1)c1c(sc3cc(O)ccc13)C2 (stereo unspecified)
9.05

meta.source: BindingDB's records for doi:10.1016/j.ejmech.2017.07.038
